TARGET_ENTITY: human mAChR M1 (Homo sapiens, UniProt P11229)
Sequence (P11229 1-460): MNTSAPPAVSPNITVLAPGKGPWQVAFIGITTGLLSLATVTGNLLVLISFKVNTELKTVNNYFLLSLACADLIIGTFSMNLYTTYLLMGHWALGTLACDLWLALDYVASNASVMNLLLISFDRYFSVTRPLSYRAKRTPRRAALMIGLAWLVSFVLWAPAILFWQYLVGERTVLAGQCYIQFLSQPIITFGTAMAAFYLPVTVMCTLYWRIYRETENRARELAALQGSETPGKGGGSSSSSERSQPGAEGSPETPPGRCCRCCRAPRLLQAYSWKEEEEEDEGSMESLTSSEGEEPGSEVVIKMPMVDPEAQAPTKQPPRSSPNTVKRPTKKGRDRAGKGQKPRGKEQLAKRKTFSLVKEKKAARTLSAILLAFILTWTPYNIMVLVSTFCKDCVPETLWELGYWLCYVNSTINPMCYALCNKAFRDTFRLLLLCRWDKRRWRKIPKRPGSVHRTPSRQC
TEST_NAME: mAChR M1 cell-based functional assay (calcium mobilization, Fluo-4, FDSS)
EXPERIMENTAL_CONDITIONS: CHO-K1 cells stably expressing hM1; calcium flux; concentration-dependent increase in the EC20 acetylcholine response
RECORDED_ENDPOINT: EC50
Your reply should be a number followed by the unit it is expressed in.

Bench note: what EC50 did Cn1cc2c(-c3cc(F)c(CN4Cc5ccn(CC6CCOCC6)c5C4=O)c(F)c3)cccc2n1 show?
8.98 µM

What measured EC50 goes with Cn1cc2c(-c3cc(F)c(CN4Cc5sccc5C4=O)c(F)c3)cccc2n1 ?
1.59 µM

State the recorded EC50 for this entry: Cn1cc2c(-c3cc(F)c(CN4Cc5ccn(CC6CCCO6)c5C4=O)c(F)c3)cccc2n1 (centres unmarked)
6.45 µM

Item Cc1cc(-c2cc(F)c(CN3Cc4cnn(CC5CCCO5)c4C3=O)c(F)c2)ccn1 (centres unmarked) has what recorded EC50?
3.58 µM

I am curious: what EC50 value has been reported for COCCn1ncc2c1C(=O)N(Cc1c(F)cc(-c3cccc4nn(C)cc34)cc1F)C2 ?
3.1 µM

# query: EC50 of entry COc1ccc(Cn2ncc3c2C(=O)N(Cc2c(F)cc(-c4cccc5nn(C)cc45)cc2F)C3)cc1
4.37 µM

Request the reported EC50 associated with Cn1cc2c(-c3cc(F)c(CN4Cc5cnn(CCO)c5C4=O)c(F)c3)cccc2n1
0.91 µM

What measured EC50 goes with Cn1cc2c(-c3ccc(CN4Cc5sccc5C4=O)c(F)c3)cccc2n1 ?
3.97 µM

Entry source: patent US20190330226A1
